METHOD_DESCRIPTION: Antioxidant activity assessed as inhibition of xanthine/xanthine oxidase system-induced superoxide anion radical scavenging activity after 20 mins
Assay type: functional
pIC50: −log10 of the molar value.
ENDPOINT: pIC50

As a guide, the following entries are already answered.
O=c1cc(-c2ccc(O)c(O)c2)oc2cc(O)cc(O)c12: 5.06
O=c1cc(-c2ccc(O)c(O)c2)oc2cc(OCCOC[C@@H]3OC(O)[C@@H](O)[C@H](O)[C@H]3O)cc(O)c12 (some centres undefined): 5.45

(I) COc1c(-c2ccc(O)c(O)c2)oc2cc(O)cc(O)c2c1=O
(II) COc1c(-c2ccc(O)c(O)c2)oc2cc(OC3O[C@@H](CO)[C@H](O)[C@@H](O)[C@@H]3O)cc(O)c2c1=O (some centres undefined)
stdin: Short answer wanted: higher pIC50, I or II ? Please indicate the selected item by its label.
stdout: II

(A) O=C(COc1cc(O)c2c(=O)cc(-c3ccc(O)c(O)c3)oc2c1)OC[C@@H]1OC(O)[C@@H](O)[C@H](O)[C@H]1O (some centres undefined)
(B) COc1c(-c2ccc(O)c(O)c2)oc2cc(OCCOC[C@@H]3OC(O)[C@@H](O)[C@H](O)[C@H]3O)cc(O)c2c1=O (some centres undefined)
(C) O=c1cc(-c2ccc(O)c(O)c2)oc2cc(OC3O[C@@H](CO)[C@H](O)[C@@H](O)[C@@H]3O)cc(O)c12 (some centres undefined)
stdin: Ordering criterion: pIC50; begin with the maximum. Use the labels to give the ranking in the order requested.
stdout: C, A, B
(C: 5.48, A: 5.21, B: 4.89)

###

METHOD_DESCRIPTION: Neuroprotective activity against H2O2-induced neuronal damage in Sprague-Dawley rat cerebral cortical cells after 20 to 24 hrs by MTT assay
Type: functional
Entries and their measured IC50 follow.
Hi! Could you send only the number? It should be in µM, unit omitted.

According to the records, this compound `O=c1cc(-c2ccc(O)c(O)c2)oc2cc(O)cc(O)c12` displays IC50 of 3.75

According to the records, this compound COc1c(-c2ccc(O)c(O)c2)oc2cc(OCCOC[C@@H]3OC(O)[C@@H](O)[C@H](O)[C@H]3O)cc(O)c2c1=O (some centres undefined) displays IC50 of 58.4

According to the records, this compound COc1c(-c2ccc(O)c(O)c2)oc2cc(OC3O[C@@H](CO)[C@H](O)[C@@H](O)[C@@H]3O)cc(O)c2c1=O (some centres undefined) displays IC50 of 30.7

According to the records, this compound O=c1cc(-c2ccc(O)c(O)c2)oc2cc(OCCOC[C@@H]3OC(O)[C@@H](O)[C@H](O)[C@H]3O)cc(O)c12 (some centres undefined) displays IC50 of 15.7
